// reported EC50 Enhancement Factor for each item listed
- System under test: MAGE-A1 target antigen peptide … presented by HLA-A*02:01 on cells (human)
- Assay explanation: cell-based or functional assay
- Set-up: unit not given beside the values
Simply state the number, no unit and no words.

>>> quantitative_readout("ht27M1001 (TCR, V domains shown) Valpha: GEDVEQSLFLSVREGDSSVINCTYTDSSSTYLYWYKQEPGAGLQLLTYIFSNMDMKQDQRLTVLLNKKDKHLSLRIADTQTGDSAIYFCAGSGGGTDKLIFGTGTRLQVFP Vbeta: GAVVSQHPSWVICKSGTSVKIECRSLDFQATTMFWYRQFPKQSLMLMATSDYQTCVTYEQGVEKDKFLINHASLTLSTLTVTSAHPEDSSFYICSAREPGQGPYEQYFGPGTRLTVT")
388

Give its EC50 Enhancement Factor value. Item: ht27M1226 (TCR, V domains shown) Valpha: GEDVEQSLFLSVREGDSSVINCTYTDSLSTYLYWYKQEPGAGLQLLTYIFSNMDMKQDQRLTVLLNKKDKHLSLRIADTQTGDSAIYFCAGSGGGTDKLIFGTGTRLQVFP Vbeta: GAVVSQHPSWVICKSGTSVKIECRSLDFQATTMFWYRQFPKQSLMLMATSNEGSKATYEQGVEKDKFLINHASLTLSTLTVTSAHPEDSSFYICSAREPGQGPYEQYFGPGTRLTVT
28

The measurements presented in this section are drawn from patent EP4534554A1.
